These data points were gathered from patent US5886022A.

# MEASUREMENT_TARGET: UniProt P14780
# Sequence (P14780 107-707 limits assumed): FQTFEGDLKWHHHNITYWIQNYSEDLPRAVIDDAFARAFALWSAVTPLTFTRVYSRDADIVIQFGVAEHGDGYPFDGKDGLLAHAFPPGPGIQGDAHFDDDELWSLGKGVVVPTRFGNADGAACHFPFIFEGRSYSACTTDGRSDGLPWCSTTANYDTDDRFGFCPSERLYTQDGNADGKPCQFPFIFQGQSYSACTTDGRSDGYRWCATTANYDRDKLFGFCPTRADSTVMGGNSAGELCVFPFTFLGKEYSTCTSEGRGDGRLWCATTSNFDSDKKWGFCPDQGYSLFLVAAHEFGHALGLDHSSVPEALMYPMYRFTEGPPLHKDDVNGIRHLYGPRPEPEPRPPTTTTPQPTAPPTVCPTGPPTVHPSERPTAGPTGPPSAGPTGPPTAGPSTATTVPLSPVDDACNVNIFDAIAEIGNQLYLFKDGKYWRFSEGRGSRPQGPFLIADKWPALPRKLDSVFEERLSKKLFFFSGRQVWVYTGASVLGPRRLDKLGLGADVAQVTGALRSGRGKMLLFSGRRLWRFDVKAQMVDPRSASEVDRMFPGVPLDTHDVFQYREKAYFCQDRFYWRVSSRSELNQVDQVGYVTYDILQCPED
# TEST_PROTOCOL: Thiopeptilide MMP-9 Inhibition Assay
# STUDY_CONDITIONS: x (n): average IC50 of n separate determinations
pIC50: −log10 of the molar value.
Recorded pIC50 determines the label; the label ranges are lower band = under 6, central band = from 6 up to 7, upper band = 7 and over

Here are 5 compounds together with their reported answers.
COMPOUND: O=C(O)[C@@H]1[C@@H](Sc2ccc(Cl)cc2)CC[C@H]1C(=O)c1ccc(-c2ccc(Cl)cc2)cc1 (relative stereo)
GROUP_LABEL: upper band
//
COMPOUND: O=C(O)[C@@H]1[C@@H](C(=O)c2ccc(-c3ccc(Cl)cc3)cc2)CC[C@H]1Sc1ccccc1 (single isomer, unassigned) [Example 212]
GROUP_LABEL: central band
//
COMPOUND: O=C(CC(CCN1C(=O)c2ccccc2C1=O)C(=O)O)c1ccc(-c2ccc(Cl)cc2)cc1 (stereo not drawn)
GROUP_LABEL: upper band
//
COMPOUND: O=C(CC(CCCc1ccccc1)C(=O)O)c1ccc(-c2ccccc2)cc1 (stereo not drawn)
GROUP_LABEL: lower band
//
COMPOUND: O=C(O)[C@@H]1[C@@H](C(=O)c2ccc(-c3ccc(Cl)cc3)cc2)CC[C@H]1Sc1ccccc1 (single isomer, unassigned) [Example 211]
GROUP_LABEL: upper band

Moving on to the next compound.
Query: Form field 'band' for CC(C)CC(CC(O)c1ccc(-c2ccc(Cl)cc2)cc1)C(=O)O (stereo not drawn)
Response: lower band

---

# MEASUREMENT_TARGET: MMP-3 (recombinant stromelysin) (Homo sapiens, UniProt P08254)
# Construct: Expression and Purification of Recombinant Truncated Prostromelysin (MMP-3)
# TEST_PROTOCOL: Secondary P218 Quenched fluorescence Assay for MMP-3 Inhibition
# STUDY_CONDITIONS: P218 substrate; x (n): average IC50 of n separate determinations; read-out: MMP-3 Fluorogenic IC50
OUTCOME_MEASURE: IC50 (nM)
Please reply with the bare figure in nM and do not write the unit itself.

The compound listed as O=C(O)[C@@H]1[C@@H](C(=O)c2ccc(-c3ccc(Cl)cc3)cc2)CC[C@H]1Sc1ccccc1 (single isomer, unassigned) shows IC50 equal to 12

---

Listed below: IC50 values for each entry.
# MEASUREMENT_TARGET: MMP-3 (recombinant truncated stromelysin) (Homo sapiens, UniProt P08254)
# Construct: made in house; host or cells: E. coli
# Sequence (P08254 100-274 limits assumed): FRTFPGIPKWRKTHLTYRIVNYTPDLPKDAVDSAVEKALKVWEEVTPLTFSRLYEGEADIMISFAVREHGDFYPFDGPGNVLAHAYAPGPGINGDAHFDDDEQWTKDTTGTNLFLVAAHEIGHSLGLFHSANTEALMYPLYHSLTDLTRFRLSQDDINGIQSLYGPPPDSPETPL
# TEST_PROTOCOL: Primary Thiopeptilide MMP-3 Inhibition Assay
# Type: biochemical
# STUDY_CONDITIONS: x (n): average IC50 of n separate determinations
I only need the number, in nM, no unit after it.

MOLECULE: CCOc1ccc(-c2ccc(C(=O)[C@@H]3CC[C@H](Sc4ccccc4)[C@H]3C(=O)O)cc2)cc1 (relative stereo) [Example 224]
MEASUREMENT_TARGET: MMP-3 (recombinant truncated stromelysin) (Homo sapiens, UniProt P08254)
IC50, nM: 36
--
MOLECULE: CCOc1ccc(-c2ccc(C(=O)[C@@H]3CC[C@H](Cc4ccccc4)[C@H]3C(=O)O)cc2)cc1 (relative stereo) [Example 226]
MEASUREMENT_TARGET: MMP-3 (recombinant truncated stromelysin) (Homo sapiens, UniProt P08254)
IC50, nM: 98
--
MOLECULE: CC(C)CC(CC(O)c1ccc(-c2ccc(Cl)cc2)cc1)C(=O)O (stereo not drawn) [Example 26]
MEASUREMENT_TARGET: MMP-3 (recombinant truncated stromelysin) (Homo sapiens, UniProt P08254)
IC50, nM: 2600
--
MOLECULE: O=C(O)[C@@H]1[C@@H](Sc2ccc(Cl)cc2)CC[C@H]1C(=O)c1ccc(-c2ccc(Cl)cc2)cc1 (relative stereo) [Example 222]
MEASUREMENT_TARGET: MMP-3 (recombinant truncated stromelysin) (Homo sapiens, UniProt P08254)
IC50, nM: 80
--
MOLECULE: CC(C)CC(CC(O)c1ccc(-c2ccc(Cl)cc2)cc1)C(=O)O (stereo not drawn) [Example 27]
MEASUREMENT_TARGET: MMP-3 (recombinant truncated stromelysin) (Homo sapiens, UniProt P08254)
IC50, nM: 5000
--
MOLECULE: O=C(CC(CCN1C(=O)c2ccccc2C1=O)C(=O)O)c1ccc(-c2ccc(Cl)cc2)cc1 (stereo not drawn) [Example 194]
MEASUREMENT_TARGET: MMP-3 (recombinant truncated stromelysin) (Homo sapiens, UniProt P08254)
IC50, nM: 38

IC50 reported for this molecule O=C(O)[C@@H]1[C@@H](C(=O)c2ccc(-c3ccc(Cl)cc3)cc2)CC[C@H]1Sc1ccccc1 (single isomer, unassigned) [Example 211] : 26

Record Cc1cc(C)cc(SCC(CC(=O)c2ccc(-c3ccc(Cl)cc3)cc2)C(=O)O)c1 (stereo not drawn) [Example 165] , field IC50: 1600

Briefly, IC50 measured for O=C(O)[C@@H]1[C@@H](Cc2ccccc2)CC[C@H]1C(=O)c1ccc(-c2ccc(Cl)cc2)cc1 (relative stereo) [Example 227] : 140

Entry COC(=O)c1ccccc1S[C@@H]1CC[C@H](C(=O)c2ccc(-c3ccc(Cl)cc3)cc2)[C@H]1C(=O)O (relative stereo) [Example 219] — recorded IC50 = 33

The recorded IC50 for O=C(O)[C@@H]1[C@H](Sc2ccc(Cl)cc2)CC[C@H]1C(=O)c1ccc(-c2ccc(Cl)cc2)cc1 (relative stereo) [Example 223] is 340

The molecule identified as CCOc1ccc(-c2ccc(C(=O)[C@@H]3CC[C@@H](Sc4ccccc4)[C@H]3C(=O)O)cc2)cc1 (relative stereo) [Example 225] registered its IC50 at 66
